Values were extracted from paper PMC6349905.

- Tested on: control HeLa cells
- assay.overview: Cell viability assay (CellTiter Glo), control cells
- Assay type: cell-based, human
- conditions: Homo sapiens, 24 h, mean ± SD
measurement.name: EC50

Examples from the recorded data:
COc1cc2c(cc1OC)CN(CCCCNC(=O)c1cc(C)ccc1OC)CC2 [RHM-1] = > 200 µM
COc1cc2c(cc1OC)CN(CCCCNC(=O)c1cc(I)cc(OC)c1OC)CC2 [RHM-4] = > 200 µM

Here's the next entry for you.
Ask: # query: EC50 of entry COc1cc2c(cc1OC)CN(CCCCNC(=O)c1cc(C)ccc1OCCF)CC2 [ISO-1]
Reply: > 200 µM

* * *

- Tested on: TMEM97 KO HeLa cells
- assay.overview: Cell viability assay (CellTiter Glo), TMEM97 KO cells
- Type: cell-based, human
- conditions: Homo sapiens, 24 h, mean ± SD
pEC50: −log10 of the molar value.
measurement.name: pEC50

Examples from the recorded data:
COc1cc2c(cc1OC)CN(CCCCNC(=O)c1cc(C)ccc1OCCF)CC2 = < 3.70
COc1cc2c(cc1OC)CN(CCCCNC(=O)c1cc(I)cc(OC)c1OC)CC2 = < 3.70

Ask: # query: pEC50 of entry COc1cc2c(cc1OC)CN(CCCCNC(=O)c1cc(C)ccc1OC)CC2
Reply: < 3.70
